# experimental.protocol: Inhibition of EthR in Mycobacterium tuberculosis H37Rv-GFP infected in mouse Raw 264.7 cells assessed as compound concentration allowing 0.1 uM ethionamide to inhibit 50% microbial growth by automated fluorescent confocal microscopy
Task for the reader: assign each of the following molecules its reported EC50.
Use nM as the unit, but write only the number.

Task: What value of measured EC50 is listed for Cc1ccc2cc(NC(=O)COc3ccccc3F)ccc2n1 ?
Result: 2200

Task: Using the record for COc1cccc(OCC(=O)Nc2ccc(-c3nc4ccccc4s3)cc2)c1 , report its EC50.
Result: 210

Task: State the recorded EC50 for this entry: N#Cc1cccc(OCC(=O)Nc2ccc(-c3nc4ccccc4s3)cc2)c1
Result: 340

Task: Bench note: what EC50 did COc1cccc(OCC(=O)Nc2ccc(Cl)cc2)c1 show?
Result: 1600
